system: SK-OV-3 ovarian; test: NCI-60 one-dose screen, 48 h (100 = growth as untreated, 0 = no growth, -100 = all killed); settings: 10 µM unless noted
The panel holds about 83,000 compounds, 20% with a hit somewhere; the sample as a whole holds those more often.
# Lookup of reported growth keyed by entry
Write the value in % as a bare number.

[[record]]
mol_smiles = "O=C(CSc1nnc(-c2cc(-c3ccc(Cl)cc3)nc3ccccc23)n1-c1ccccc1)Nc1ccc(Cl)cc1"
measured_on = "SK-OV-3 ovarian"
assay_value = 94.6

[[record]]
mol_smiles = "O=C1N/C(=N/N=C(c2ccccc2)c2ccccc2)S/C1=C\\c1ccc(Br)cc1"
measured_on = "SK-OV-3 ovarian"
assay_value = 97.2

[[record]]
mol_smiles = "CC(C)(C)n1cc(-c2ccnc(NCCNS(=O)(=O)c3cccc4ccccc34)c2)c(-c2cccc(O)c2)n1"
measured_on = "SK-OV-3 ovarian"
assay_value = 81.9

[[record]]
mol_smiles = "COc1cccc(C(=O)Nc2cccc(NC(=O)c3ccccn3)c2)c1"
measured_on = "SK-OV-3 ovarian"
assay_value = 97.7


Entry "CCOC(=O)c1c(NC(=S)Nc2ccc([N+](=O)[O-])cc2)sc2c1CCCCC2" has what growth? 66
